system: Mot3 (UniProt P54785)
Sequence: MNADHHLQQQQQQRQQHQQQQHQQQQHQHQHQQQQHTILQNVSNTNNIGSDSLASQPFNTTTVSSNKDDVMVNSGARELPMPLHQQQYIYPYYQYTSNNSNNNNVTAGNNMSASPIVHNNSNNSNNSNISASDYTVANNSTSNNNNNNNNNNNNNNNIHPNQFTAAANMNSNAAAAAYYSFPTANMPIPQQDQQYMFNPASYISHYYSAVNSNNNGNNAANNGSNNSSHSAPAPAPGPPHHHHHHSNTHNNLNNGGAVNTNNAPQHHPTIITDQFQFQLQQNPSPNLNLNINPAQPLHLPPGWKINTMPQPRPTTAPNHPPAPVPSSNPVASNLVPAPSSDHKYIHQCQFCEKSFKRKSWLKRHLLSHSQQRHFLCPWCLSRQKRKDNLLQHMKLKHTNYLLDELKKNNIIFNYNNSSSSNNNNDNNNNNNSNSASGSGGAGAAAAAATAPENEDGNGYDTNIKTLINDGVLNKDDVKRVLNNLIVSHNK
run.description: PBM E-score (8-mer binding enrichment) (E-score (-0.5 to 0.5)); higher = stronger / more preferred TF binding
run.conditions: protein concentration: 200 nM; construct: GST-full length
In all, about 33,000 sequences were measured (“E-score (-0.5 to 0.5)”: median about -0.035, highest 2% from about 0.34 on). For the sample, the highest values were picked, then their nearest neighbours and some sequences at random.
Param threshold (-0.02) applies to PBM E-score; output MET when value >= threshold, NOT MET when value < threshold.

See these solved cases before continuing.
In plain terms: is recorded PBM E-score at least -0.02 for ACGTGTTG ?
MET

Identify whether the reported PBM E-score of the following sequence is -0.02 or greater: GACATGCA
MET

Assess whether reported PBM E-score for AAAGTCGG sits at -0.02 or higher.
NOT MET

Check the entry GGTGCTAA : does PBM E-score equal or exceed -0.02?
NOT MET

Further cases:
Check the entry AGAAGGTG : does PBM E-score equal or exceed -0.02?
NOT MET

I'd appreciate it if you could say whether ACGTGTTA has PBM E-score at least equal to -0.02.
MET

Please check the record TACATGCA and state if its PBM E-score is at or above -0.02.
MET

Item ACGCGCTG with PBM E-score of -0.02 or above?
MET

Exam item: decide whether the reported PBM E-score for CCGTGTCA is at least -0.02.
MET

Dear colleague, could you confirm whether GAAGCTAC has PBM E-score at or above -0.02?
NOT MET

Exam item: decide whether the reported PBM E-score for CGGTACCC is at least -0.02.
NOT MET

Please indicate if the recorded PBM E-score for ATGTAAGC meets or exceeds -0.02.
MET

// inclusive: PBM E-score at least -0.02? input: ACGCTCCC
NOT MET

Could you verify whether the entry ATTGGCAC shows PBM E-score of no less than -0.02?
NOT MET

Please indicate if the recorded PBM E-score for CTGTAATC meets or exceeds -0.02.
MET

Threshold query (PBM E-score >= -0.02) on CGAAGGTA
MET

Tell me whether PBM E-score is at least -0.02 here: ATTTCCAA
MET

In plain terms: is recorded PBM E-score at least -0.02 for GGGTACCA ?
NOT MET

I'd appreciate it if you could say whether ATTTCCTC has PBM E-score at least equal to -0.02.
NOT MET

Given CGAAGGTC , state whether its PBM E-score is at least -0.02.
NOT MET

Kindly determine if PBM E-score recorded for ATTTCCCA is above or exactly -0.02.
NOT MET
